The origin of these recorded values is patent US20100152129A1.

Test system: Panc-1 cells
measurement_notes: Protein expression using high content cell imaging system, and efficacy score; also: test concentration or dose not given here
Format: cell-based
reported_conditions: 6 hours post treatment; control 8
Entries and their CDKN2A protein expression
Provide the reading as a plain figure in fluorescence units.

Some compounds with recorded CDKN2A protein expression:
CN1CC[C@H](c2c(O)cc(O)c3c(=O)cc(-c4ccccc4Cl)oc23)[C@H](O)C1    67
Nc1ccn([C@@H]2O[C@H](CO)[C@@H](O)C2(F)F)c(=O)n1    60
CN1CC[C@@H](c2c(O)cc(O)c3c(=O)cc(-c4ccc(C(F)(F)F)cc4Cl)oc23)[C@@H]1CO.Cl (relative stereo) [P1446A]    49

Consider the compound CC[C@H](CO)Nc1nc(NCc2ccccc2)c2ncn(C(C)C)c2n1 and give its measured CDKN2A protein expression. 10

Then CN1CC[C@@H](c2c(O)cc(O)c3c(=O)cc(-c4ccccc4Cl)oc23)[C@@H]1CO.Cl (relative stereo) ? 76
